- system-under-test: 5-hydroxytryptamine receptor 2C (Homo sapiens, UniProt P28335)
- Sequence (P28335 whole entry): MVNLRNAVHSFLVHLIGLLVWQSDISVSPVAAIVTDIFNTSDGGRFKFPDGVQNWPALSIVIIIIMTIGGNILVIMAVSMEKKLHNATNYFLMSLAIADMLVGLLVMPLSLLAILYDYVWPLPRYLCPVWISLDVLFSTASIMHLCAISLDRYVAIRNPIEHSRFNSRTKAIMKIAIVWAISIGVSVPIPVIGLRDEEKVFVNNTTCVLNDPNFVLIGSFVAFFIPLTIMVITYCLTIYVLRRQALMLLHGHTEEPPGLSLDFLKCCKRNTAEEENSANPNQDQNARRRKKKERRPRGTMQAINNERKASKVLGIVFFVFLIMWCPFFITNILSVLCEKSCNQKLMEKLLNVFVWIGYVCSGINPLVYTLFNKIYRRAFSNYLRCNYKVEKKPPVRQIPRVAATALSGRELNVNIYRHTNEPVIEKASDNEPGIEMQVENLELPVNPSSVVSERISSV
Assignment: determine reported pKi for the given compounds.
One number for each entry, as −log10 of the molar value.

List the reported pKi of each compound below.
1. CC[C@@H](CO)NC(=O)[C@@H]1C=C2c3cccc4c3c(cn4C)C[C@H]2N(C)C1 [METHYSERGIDE]
2. N=C(N)NCCC[C@@H]1NC(=O)/C(=C/c2c[nH]c3cc(Br)ccc23)NC1=O

[8.60, 6.47]

====

Assignment: determine reported Ki for the given compounds.
- system-under-test: 5-hydroxytryptamine receptor 4 (Homo sapiens, UniProt Q13639)
- Sequence (Q13639 whole entry): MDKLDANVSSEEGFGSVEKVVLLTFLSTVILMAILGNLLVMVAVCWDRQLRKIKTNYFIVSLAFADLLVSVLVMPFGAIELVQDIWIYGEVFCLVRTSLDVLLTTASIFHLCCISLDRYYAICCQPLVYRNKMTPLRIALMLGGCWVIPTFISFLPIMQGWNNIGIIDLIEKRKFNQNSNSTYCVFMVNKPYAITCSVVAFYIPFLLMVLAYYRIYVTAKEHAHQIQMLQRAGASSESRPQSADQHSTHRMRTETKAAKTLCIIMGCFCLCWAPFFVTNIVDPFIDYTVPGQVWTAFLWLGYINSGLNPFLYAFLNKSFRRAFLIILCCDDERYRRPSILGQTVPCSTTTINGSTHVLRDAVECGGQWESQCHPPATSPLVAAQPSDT
Answers are plain numbers, in nM.

N=C(N)NCCC[C@@H]1NC(=O)/C(=C/c2c[nH]c3cc(Br)ccc23)NC1=O [BARETTIN]: 1910

We now examine a further compound.
What Ki value was documented for this compound, CCCCCNC(=N)N/N=C/c1c[nH]c2ccc(OC)cc12 [TEGASEROD] ? 31
